IC50 by entry:
# SUBJECT OF TEST: AChE (Electrophorus electricus, 220 U·mg^-1) (Electrophorus electricus)
# Sequence (O42275 24-633): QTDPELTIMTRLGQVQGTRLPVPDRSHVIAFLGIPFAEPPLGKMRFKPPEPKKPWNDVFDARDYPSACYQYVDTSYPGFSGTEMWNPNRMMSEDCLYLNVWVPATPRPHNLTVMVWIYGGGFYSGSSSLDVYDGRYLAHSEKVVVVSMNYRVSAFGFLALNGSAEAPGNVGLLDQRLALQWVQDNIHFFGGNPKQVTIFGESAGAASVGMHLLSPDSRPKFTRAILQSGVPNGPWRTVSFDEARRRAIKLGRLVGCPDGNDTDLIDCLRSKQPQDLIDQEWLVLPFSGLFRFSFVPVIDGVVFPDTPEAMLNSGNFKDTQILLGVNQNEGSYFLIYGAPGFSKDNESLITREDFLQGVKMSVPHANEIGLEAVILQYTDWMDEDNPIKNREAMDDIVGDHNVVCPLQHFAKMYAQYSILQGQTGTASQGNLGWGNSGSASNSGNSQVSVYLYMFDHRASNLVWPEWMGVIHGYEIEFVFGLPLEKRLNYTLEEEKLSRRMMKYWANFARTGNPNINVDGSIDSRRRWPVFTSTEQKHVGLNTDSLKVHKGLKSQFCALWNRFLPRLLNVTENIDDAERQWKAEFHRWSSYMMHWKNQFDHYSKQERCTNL
Only the number, expressed in µM, is required.

SMILES STR: CCOP(=S)(OCC)Oc1nc(Cl)c(Cl)cc1Cl
IC50, µM: 73

Field: next molecule
Give IC50 for "COP(=O)(OC)OC=C(Cl)Cl" tested on AChE (Electrophorus electricus, 220 U·mg^-1) (Electrophorus electricus). 1.25
